- Target: HDAC2 (Homo sapiens)
- Construct: purchased Abcam (Cambridge, MA, USA)
- Sequence (Q92769 whole entry): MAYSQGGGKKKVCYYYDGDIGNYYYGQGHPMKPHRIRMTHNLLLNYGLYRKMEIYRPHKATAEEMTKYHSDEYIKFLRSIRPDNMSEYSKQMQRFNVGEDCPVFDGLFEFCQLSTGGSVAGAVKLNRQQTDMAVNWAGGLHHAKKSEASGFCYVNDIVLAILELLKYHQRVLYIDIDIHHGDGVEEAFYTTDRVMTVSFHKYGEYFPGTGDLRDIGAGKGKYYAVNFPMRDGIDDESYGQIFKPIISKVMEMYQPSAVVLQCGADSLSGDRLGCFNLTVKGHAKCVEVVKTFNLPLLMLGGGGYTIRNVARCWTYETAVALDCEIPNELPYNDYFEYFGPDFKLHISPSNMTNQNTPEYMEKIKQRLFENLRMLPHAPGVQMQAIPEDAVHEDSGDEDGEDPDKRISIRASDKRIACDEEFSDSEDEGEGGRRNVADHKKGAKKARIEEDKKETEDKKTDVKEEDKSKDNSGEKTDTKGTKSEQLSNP
- Protocol Details: In vitro HDAC2 inhibition assay (Boc-Lys(acetyl)-AMC fluorogenic)
- Type: biochemical
- Assay Setup: 37 °C, 30 min; read-out: HDAC2 (IC50)
For each record, check the reported IC50: if it is below 0.009 µM write class 1, else write class 0.

Before answering, review these 4 worked examples.
sample_smiles=CNCCNCc1cccc(-c2nc(Nc3cccc(OCCCCCCC(=O)NO)c3)c(C)c(-c3c(C)noc3C)n2)c1 class="class 1"
sample_smiles=CNCCNCc1cccc(-c2nc(Cl)c(C)c(Nc3cccc(OCCCCCCC(=O)NO)c3)n2)c1 class="class 0"
sample_smiles=CNCCNCc1cccc(-c2nc(Nc3cccc(OCCCCCCC(=O)NO)c3)c(C)c(-c3cc4ccccc4s3)n2)c1 class="class 0"
sample_smiles=CNCCNCc1cccc(-c2nc(Nc3cccc(OCCCCCCC(=O)NO)c3)c(C)c(Oc3ccccc3)n2)c1 class="class 0"

Prompt: Find out if reported IC50 for CNCCNCc1cccc(-c2nc(Nc3cccc(OCCCCCCC(=O)NO)c3)c(C)c(-c3cccnc3)n2)c1 is less than 0.009 µM
Completion: class 1

###

- Test system: DU145 cells
- Protocol Details: MTT cell growth assay, DU145
- Assay Setup: Homo sapiens, DU-145, read-out: DU145 (% inhibition rate, 1 μM)
Catalogue of inhibition at 1 µM values

# annotated cases, reported inhibition at 1 µM shown
compound="CNCCNCc1cccc(-c2nc(Nc3cccc(OCCCCCCC(=O)NO)c3)c(C)c(-c3cc4ccccc4s3)n2)c1 [CH-5]" endpoint_name="inhibition at 1 µM" value_measured=85%
compound="CNCCNCc1cccc(-c2nc(Nc3cccc(OCCCCCCC(=O)NO)c3)c(C)c(Oc3ccccc3)n2)c1 [CH-7]" endpoint_name="inhibition at 1 µM" value_measured=81%
compound="CNCCNCc1cccc(-c2nc(Nc3cccc(OCCCCCCC(=O)NO)c3)c(C)c(-c3cc4cccc(OC)c4[nH]3)n2)c1 [CH-4]" endpoint_name="inhibition at 1 µM" value_measured=92%
compound="CNCCNCc1cccc(-c2nc(Nc3cccc(OCCCCCCC(=O)NO)c3)c(C)c(-c3c(C)noc3C)n2)c1 [CH-2]" endpoint_name="inhibition at 1 µM" value_measured=93%
compound="CNCCNCc1cccc(-c2nc(Nc3cccc(OCCCCCCC(=O)NO)c3)c(C)c(-c3ccnc4[nH]ccc34)n2)c1 [CH-1]" endpoint_name="inhibition at 1 µM" value_measured=97%
compound="CNC[C@@H](O)COc1ccc(Cl)c(-c2nc(-c3c(C)noc3C)c(C)c(N3CC4(CCN(C(=O)OC)CC4)C3)n2)c1 [EZM2302, reference compound]" endpoint_name="inhibition at 1 µM" value_measured="< 50%"

Prompt: Annotate the compound CNCCNCc1cccc(-c2nc(Cl)c(C)c(Nc3cccc(OCCCCCCC(=O)NO)c3)n2)c1 [CH-6] with its measured inhibition at 1 µM.
Completion: 86%

Prompt: Consider the compound CNCCNCc1cccc(-c2nc(Nc3cccc(OCCCCCCC(=O)NO)c3)c(C)c(-c3cccnc3)n2)c1 [CH-3] . State its measured inhibition at 1 µM.
Completion: 96%

###

- System: 22RV1 cells
- Protocol Details: MTT cell growth assay, 22RV1
- Assay Setup: Homo sapiens, 22Rv1, 72 h, read-out: 22RV1 cell proliferation IC50
Endpoint Name: pIC50
Kindly note that pIC50 refers to -log10 of the concentration in mol/L and answer with the value alone.

Prompt: Using the record for CNCCNCc1cccc(-c2nc(Nc3cccc(OCCCCCCC(=O)NO)c3)c(C)c(-c3ccnc4[nH]ccc34)n2)c1 , state its measured pIC50.
Completion: 6.02

Attribution: paper PMC10399481
